B1: library; a variant is named by its letters at X, in order (parent)
chain: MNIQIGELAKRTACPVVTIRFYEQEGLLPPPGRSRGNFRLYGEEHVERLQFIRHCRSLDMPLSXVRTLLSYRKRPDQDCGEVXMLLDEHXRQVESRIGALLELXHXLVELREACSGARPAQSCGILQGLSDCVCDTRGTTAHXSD

Variants of: B1
Assay: sfGFP reporter fluorescence (15 h) (µM FITC); higher = stronger transcriptional activation
Conditions: library round: Round 3b; ligand: 30 µM Zn
Is sfGFP reporter fluorescence at least 0.05? Then yes (1). If not, no (0).

Quick check: does "KFAVET" have sfGFP reporter fluorescence greater than or equal to 0.05?
yes (1)

Tell me whether sfGFP reporter fluorescence is at least 0.05 here: "KIATAT"
yes (1)

Identify whether the reported sfGFP reporter fluorescence of the following variant is 0.05 or greater: "KFAKHT"
yes (1)

Can "DFAVEP" be said to have sfGFP reporter fluorescence at or above 0.05?
no (0)

Please check the record "DFAKAT" and state if its sfGFP reporter fluorescence is at or above 0.05.
no (0)

Form field: sfGFP reporter fluorescence at least 0.05? Entry: "KFITHT"
yes (1)

Could you tell me if the measured sfGFP reporter fluorescence of "KFAKAR" reaches 0.05 or more?
yes (1)

Could you please find out whether "DIATAP" has sfGFP reporter fluorescence that meets 0.05 or exceeds it?
no (0)

Given the entry "KIATAP" , answer whether its sfGFP reporter fluorescence meets or surpasses 0.05.
yes (1)

In plain terms: is recorded sfGFP reporter fluorescence at least 0.05 for "DFATHT" ?
no (0)

I'd appreciate it if you could say whether "DFATER" has sfGFP reporter fluorescence at least equal to 0.05.
no (0)

Has "KFITEP" a recorded sfGFP reporter fluorescence greater than or equal to 0.05?
yes (1)

# check: sfGFP reporter fluorescence of "DFAKET" is greater than or equal to 0.05
no (0)

Is the recorded value of sfGFP reporter fluorescence equal to or greater than 0.05 for this variant? "DFATHR"
no (0)

Say whether "DIAKET" shows sfGFP reporter fluorescence of 0.05 or more.
no (0)

Decide: sfGFP reporter fluorescence of "KFATAR" >= 0.05?
yes (1)

Can "DNATET" be said to have sfGFP reporter fluorescence at or above 0.05?
yes (1)

Check the entry "KIITHT" : does sfGFP reporter fluorescence equal or exceed 0.05?
yes (1)

Check if sfGFP reporter fluorescence >= 0.05 (inclusive). Item: "DIATEP"
no (0)

Could you tell me if the measured sfGFP reporter fluorescence of "DIATHT" reaches 0.05 or more?
no (0)

Test whether the variant "KIIKER" records sfGFP reporter fluorescence of 0.05 or higher.
no (0)

Is the recorded value of sfGFP reporter fluorescence equal to or greater than 0.05 for this variant? "KNATHR"
yes (1)

Given "KIATER" , state whether its sfGFP reporter fluorescence is at least 0.05.
yes (1)

Would you say "KNATHT" shows sfGFP reporter fluorescence at minimum 0.05?
yes (1)

Is it the case that "KFAKET" has sfGFP reporter fluorescence reaching or exceeding 0.05?
yes (1)

Decide: is the reported value of sfGFP reporter fluorescence for "KIAKHR" equal to or greater than 0.05?
yes (1)

Determine whether this variant has sfGFP reporter fluorescence no lower than 0.05: "KIAKHT"
yes (1)

Would you say "DIAVAT" shows sfGFP reporter fluorescence at minimum 0.05?
no (0)

State whether the measured sfGFP reporter fluorescence reaches 0.05, counting equality as reaching it, for "KIIVHT"
yes (1)

Please check the record "KNIVER" and state if its sfGFP reporter fluorescence is at or above 0.05.
yes (1)

hey, is sfGFP reporter fluorescence for this one >= 0.05? "DFAVAP"
no (0)

Say whether "KIAVER" shows sfGFP reporter fluorescence of 0.05 or more.
yes (1)

Decide: sfGFP reporter fluorescence of "KNAVHR" >= 0.05?
yes (1)

Quick check: does "KIAVHR" have sfGFP reporter fluorescence greater than or equal to 0.05?
yes (1)

I'd appreciate it if you could say whether "DIAKAT" has sfGFP reporter fluorescence at least equal to 0.05.
no (0)

State whether the measured sfGFP reporter fluorescence reaches 0.05, counting equality as reaching it, for "DIAVHT"
no (0)

Determine whether measured sfGFP reporter fluorescence meets or exceeds 0.05 for "KFAVER"
yes (1)

Hi, just wondering whether "DFAVER" shows sfGFP reporter fluorescence of 0.05 or higher.
no (0)

Quick check: does "KNAVET" have sfGFP reporter fluorescence greater than or equal to 0.05?
yes (1)

Kindly determine if sfGFP reporter fluorescence recorded for "KFATHP" is above or exactly 0.05.
yes (1)

Decide: sfGFP reporter fluorescence of "DNATER" >= 0.05?
yes (1)

Is reported sfGFP reporter fluorescence greater than or equal to 0.05 here: "DNAVER"
yes (1)

Does the variant "KFAKEP" have recorded sfGFP reporter fluorescence that is 0.05 or more?
yes (1)

Entry "KFIVET" : is its sfGFP reporter fluorescence no less than 0.05?
yes (1)
